- Protocol notes: CNS penetration
- Assay type: in vivo, male CD Sprague Dawley rats
- Test settings: male, CD Sprague Dawley, brain; rat, 1 mg/kg intravenous, 5 minutes post-dose; described as low CNS penetration; read-out: CNS penetration (compound in brain tissue)
- Protocol: Compounds were dosed intravenously at a nominal dose level of 1 mg/kg to male CD Sprague Dawley rats. Compounds were formulated in 5% DMSO/45% PEG200/50% water. Blood samples were taken under terminal anaesthesia with isoflurane at 5 minutes post-dose and the brains were also removed for assessment of brain penetration. […] The concentration of parent drug in blood and brain extracts was determined by quantitative LC-MS/MS analysis using compound-specific mass transitions.
Readout label: concentration at 5 min

>>> df
                              line_notation      result
0  CS(=O)(=O)c1ccc(C(=O)N2CCN(c3ccc(OC4CCN(C5CCC5)CC4)cc3)CC2)cc1  < 100 ng/g
